Experiment: NCI Yeast Anticancer Drug Screen. Data for the mec2-1 strain (AID 157)
Settings: S. cerevisiae mec2-1 strain, at 50.0 µM, hits give high values
Compounds without any hit were thinned out: in the full panel of roughly 79,000, 15% have a hit.
Measure: growth inhibition (%)
Value expressed in %; do not type the unit.

Record excerpt, results attached:
INSERT INTO results (molecule, measurement_units, test_value) VALUES
  ('COc1cc(Cc2nccc3cc(OC)c(OC)cc23)c(N=NN(C)C)cc1OC', '%', -7.6),
  ('Cc1nn(C(=S)S)c(C)c1N=Nc1ccc(O)cc1', '%', 10.5),
  ('CC(=O)Oc1cccc2c(/C=N/NC(N)=S)ncc(C)c12', '%', 78.3);

Q. What value of growth inhibition has been recorded for this entry: "Cc1cc2c(c(C(=O)NCCC(=O)N[C@@H](C)C(=O)OCc3ccccc3)c1)Oc1c(cc(C)cc1C(=O)NCCC(=O)N[C@@H](C)C(=O)OCc1ccccc1)S2"
A. 10.8

Q. What value of growth inhibition has been recorded for this entry: "Nc1ncnc2c1cnn2Cc1ccccc1"
A. -7.3

Source of measurements: PubChem BioAssay (NCI)
